assay.target: Gamma-aminobutyric acid receptor subunit alpha-1 (Rattus norvegicus, UniProt P62813); note: assay procedure not described here
Sequence (P62813 whole entry): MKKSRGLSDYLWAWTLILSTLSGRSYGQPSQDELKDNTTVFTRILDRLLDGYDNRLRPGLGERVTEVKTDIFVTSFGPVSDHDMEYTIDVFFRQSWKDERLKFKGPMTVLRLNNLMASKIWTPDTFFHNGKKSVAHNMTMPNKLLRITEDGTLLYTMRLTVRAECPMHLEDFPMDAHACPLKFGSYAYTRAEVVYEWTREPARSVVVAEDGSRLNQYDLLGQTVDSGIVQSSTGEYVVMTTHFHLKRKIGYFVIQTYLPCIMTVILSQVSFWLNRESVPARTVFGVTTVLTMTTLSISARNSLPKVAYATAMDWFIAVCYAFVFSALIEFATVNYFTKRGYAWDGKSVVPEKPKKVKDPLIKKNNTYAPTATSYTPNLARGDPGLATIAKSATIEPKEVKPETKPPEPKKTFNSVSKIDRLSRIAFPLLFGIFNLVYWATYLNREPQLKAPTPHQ
Format: functional
attribute.measured: AC50

Record excerpt, results attached:
**Q:** Tell me the measured AC50 of `C[N+](C)(C)CCOC(N)=O` , please.
**A:** > 10 µM

**Q:** What does the data say about its AC50? Entry: CC(=O)NS(=O)(=O)c1ccc(N)cc1 [SULFACETAMIDE]
**A:** > 10 µM

**Q:** I have this compound here, `CN1CCc2cccc3c2[C@H]1Cc1ccc(O)c(O)c1-3` , and I need its recorded AC50.
**A:** > 10 µM

**Q:** Looking for the measured AC50 of `Nc1nc2ccc(OC(F)(F)F)cc2s1` , can you help?
**A:** > 30 µM

# input for lookup
**Q:** So what's the measured AC50 for this one? `CCC[C@@H]1C[C@@H](C(=O)N[C@@H]([C@H]2O[C@H](SC)[C@H](O)[C@@H](O)[C@H]2O)[C@H](C)Cl)N(C)C1`
**A:** > 10 µM

* * *

assay.target: 3',5'-cyclic-AMP phosphodiesterase 4A (Homo sapiens); note: assay procedure not described here
Sequence (P27815 whole entry): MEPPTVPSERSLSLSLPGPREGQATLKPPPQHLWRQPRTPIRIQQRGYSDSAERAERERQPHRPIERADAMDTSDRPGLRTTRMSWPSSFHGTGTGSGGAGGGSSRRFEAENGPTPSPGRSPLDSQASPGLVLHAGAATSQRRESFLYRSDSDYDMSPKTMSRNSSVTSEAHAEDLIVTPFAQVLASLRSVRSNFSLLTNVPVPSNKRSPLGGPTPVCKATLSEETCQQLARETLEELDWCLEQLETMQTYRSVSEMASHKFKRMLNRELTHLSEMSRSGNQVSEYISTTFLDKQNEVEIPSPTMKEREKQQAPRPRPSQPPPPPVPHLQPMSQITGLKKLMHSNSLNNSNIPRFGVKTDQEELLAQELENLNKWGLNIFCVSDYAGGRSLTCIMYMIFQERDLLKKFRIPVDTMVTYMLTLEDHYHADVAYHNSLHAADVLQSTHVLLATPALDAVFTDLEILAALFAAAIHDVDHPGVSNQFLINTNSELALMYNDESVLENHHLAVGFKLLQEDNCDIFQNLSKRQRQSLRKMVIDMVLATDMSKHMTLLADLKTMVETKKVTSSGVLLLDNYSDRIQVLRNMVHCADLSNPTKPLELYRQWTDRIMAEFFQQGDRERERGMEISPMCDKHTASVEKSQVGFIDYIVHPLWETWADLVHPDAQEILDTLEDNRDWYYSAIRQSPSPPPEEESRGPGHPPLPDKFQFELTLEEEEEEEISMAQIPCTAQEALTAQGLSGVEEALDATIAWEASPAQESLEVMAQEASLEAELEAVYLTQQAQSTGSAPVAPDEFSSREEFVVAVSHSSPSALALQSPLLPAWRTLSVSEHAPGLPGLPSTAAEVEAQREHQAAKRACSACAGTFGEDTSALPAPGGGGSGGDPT
Type: functional
attribute.measured: AC50

Reference set (4 entries):
**Q:** Requested field: AC50. Item: CCC(=O)O[C@H]1[C@H](O[C@@H]2[C@@H](C)[C@H](O[C@H]3C[C@@](C)(OC)[C@@H](O)[C@H](C)O3)[C@@H](C)C(=O)O[C@H](CC)[C@@](C)(O)[C@H](O)[C@@H](C)C(=O)[C@H](C)C[C@@]2(C)O)O[C@H](C)C[C@@H]1N(C)C [ERYTHROMYCIN PROPIONATE]
**A:** > 30 µM

**Q:** Suppose we examine the compound `CO/N=C(\C(=O)N[C@@H]1C(=O)N2C(C(=O)OCOC(=O)C(C)(C)C)=C(C)CS[C@H]12)c1csc(N)n1` ; what AC50 value has been reported?
**A:** > 30 µM

**Q:** Entry under review: `CC[C@@H]1/C=C(\C)C[C@H](C)C[C@H](OC)[C@H]2O[C@@](O)(C(=O)C(=O)N3CCCC[C@H]3C(=O)O[C@H](/C(C)=C/[C@@H]3CC[C@H](Cl)[C@H](OC)C3)[C@H](C)[C@@H](O)CC1=O)[C@H](C)C[C@@H]2OC` . Reported AC50?
**A:** > 30 µM

**Q:** // query AC50 value for entry NS(=O)(=O)c1cc2c(cc1Cl)NC(CC1CCCC1)NS2(=O)=O (stereo not given) [CYCLOPENTHIAZIDE]
**A:** > 30 µM

Pending compound:
**Q:** Given `CCOc1ccc(/C=C2\NCCc3cc(OCC)c(OCC)cc32)cc1OCC` , state its recorded AC50.
**A:** 1.68 µM

* * *

assay.target: UniProtKB P27815
Assay type: functional
In this section we review reported AC50 values for a set of compounds.

Consider the worked cases shown below.
**Q:** Name the reported AC50 value associated with the compound `Cn1cc[nH]c1=S`
**A:** > 30 µM

**Q:** So what's the measured AC50 for this one? CC(=O)Oc1c(C)cc(OCC(O)CNC(C)C)c(C)c1C (stereo not given)
**A:** > 30 µM

**Q:** Please report the recorded AC50 for `OC[C@@H](O)[C@@H](O)[C@H](O)[C@H](O)CO` .
**A:** > 30 µM

**Q:** Query: AC50; subject: `O=C1c2c(O)c(=O)ccn2N([C@@H]2c3ccccc3SCc3c2ccc(F)c3F)[C@@H]2COCCN12`
**A:** > 30 µM

Others:
**Q:** Give the measured AC50 of `C[N+](C)(C)CCCCCCCCCC[N+](C)(C)C` .
**A:** > 30 µM

**Q:** Endpoint output: AC50 of `O=C(O)CCn1c2c(c3ccccc31)C[C@H](NS(=O)(=O)c1ccc(F)cc1)CC2` . Value?
**A:** > 30 µM

**Q:** Fill in the blank: the reported AC50 of `OCCN1CCN(CCCN2c3ccccc3C=Cc3ccccc32)CC1` is ____.
**A:** > 30 µM

**Q:** GET /values?readout=AC50&item= `Oc1cccc2cccnc12`
**A:** > 30 µM

**Q:** Give the measured AC50 of O=C(Nc1ccccc1)OCC(CN1CCCCC1)OC(=O)Nc1ccccc1 (stereo not given) .
**A:** > 30 µM

**Q:** What value of AC50 has been recorded for this entry: `CN1CCN(C(c2ccccc2)c2ccccc2)CC1`
**A:** > 30 µM

* * *

Histamine H1 receptor (Homo sapiens) data, read-out AC50; note: assay procedure not described here
Sequence (P35367 whole entry): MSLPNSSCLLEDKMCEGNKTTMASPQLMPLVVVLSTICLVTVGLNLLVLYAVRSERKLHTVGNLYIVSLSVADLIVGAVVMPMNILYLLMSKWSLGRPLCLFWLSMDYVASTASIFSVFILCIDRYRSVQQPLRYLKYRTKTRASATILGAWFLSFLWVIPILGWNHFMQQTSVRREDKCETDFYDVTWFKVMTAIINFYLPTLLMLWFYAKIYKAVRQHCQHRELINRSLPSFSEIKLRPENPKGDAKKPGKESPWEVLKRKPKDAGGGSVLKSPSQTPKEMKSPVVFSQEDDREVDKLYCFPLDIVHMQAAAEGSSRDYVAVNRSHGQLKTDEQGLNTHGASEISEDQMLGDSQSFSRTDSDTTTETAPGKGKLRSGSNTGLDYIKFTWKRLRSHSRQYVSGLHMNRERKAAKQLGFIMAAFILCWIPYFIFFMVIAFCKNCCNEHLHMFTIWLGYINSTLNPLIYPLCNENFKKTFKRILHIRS

The following compounds have reported results that may help.
**Q:** Missing value: AC50, Histamine H1 receptor (Homo sapiens), entry O=C(CCCCCCC(=O)Nc1ccccc1)NO [VORINOSTAT] . Fill in?
**A:** > 30 µM

**Q:** What is its AC50 for Histamine H1 receptor (Homo sapiens)? Entry: O=C1CN=C(c2ccccc2)c2cc(Cl)ccc2N1CC(F)(F)F [HALAZEPAM]
**A:** > 30 µM

**Q:** Form: Entry = `CO/N=C(\C(=O)N[C@@H]1C(=O)N2C(C(=O)OCOC(=O)C(C)(C)C)=C(C)CS[C@H]12)c1csc(N)n1` | System = Histamine H1 receptor (Homo sapiens) | AC50 = ____; note: assay procedure not described here
**A:** > 30 µM

**Q:** Notebook entry, Histamine H1 receptor (Homo sapiens) assay: AC50 of CNC(=O)c1cc(Oc2ccc(NC(=O)Nc3ccc(Cl)c(C(F)(F)F)c3)cc2)ccn1 [SORAFENIB] = ?
**A:** > 30 µM

**Q:** What is its AC50 for Histamine H1 receptor (Homo sapiens)? Entry: CC(=O)N(CC(O)CO)c1c(I)c(C(=O)NCC(O)CO)c(I)c(C(=O)NCC(O)CO)c1I (centres undefined) [IOHEXOL]
**A:** > 10 µM

Further cases:
**Q:** Record lookup: for Histamine H1 receptor (Homo sapiens), what AC50 belongs to CCc1nn(CCCN2CCN(c3cccc(Cl)c3)CC2)c(=O)n1CCOc1ccccc1 [NEFAZODONE] ?
**A:** 0.41 µM

**Q:** Find the measured AC50: item C[C@@H]1O[C@@H]1P(=O)(O)O [FOSFOMYCIN] , target or system Histamine H1 receptor (Homo sapiens). Note: assay procedure not described here.
**A:** > 10 µM

**Q:** What measured AC50 is associated with O=C(O)Cc1cn(-c2ccccc2)nc1-c1ccc(Cl)cc1 [LONAZOLAC] on Histamine H1 receptor (Homo sapiens)?
**A:** > 30 µM

**Q:** Notebook entry, Histamine H1 receptor (Homo sapiens) assay: AC50 of CC(=O)c1ccc2c(c1)N(CCCN1CCN(CCO)CC1)c1ccccc1S2 [ACETOPHENAZINE] = ?
**A:** 0.049 µM

* * *

// reported AC50 for each item listed
assay.target: Synaptic vesicular amine transporter (Rattus norvegicus); note: assay procedure not described here
Sequence (Q01827 whole entry): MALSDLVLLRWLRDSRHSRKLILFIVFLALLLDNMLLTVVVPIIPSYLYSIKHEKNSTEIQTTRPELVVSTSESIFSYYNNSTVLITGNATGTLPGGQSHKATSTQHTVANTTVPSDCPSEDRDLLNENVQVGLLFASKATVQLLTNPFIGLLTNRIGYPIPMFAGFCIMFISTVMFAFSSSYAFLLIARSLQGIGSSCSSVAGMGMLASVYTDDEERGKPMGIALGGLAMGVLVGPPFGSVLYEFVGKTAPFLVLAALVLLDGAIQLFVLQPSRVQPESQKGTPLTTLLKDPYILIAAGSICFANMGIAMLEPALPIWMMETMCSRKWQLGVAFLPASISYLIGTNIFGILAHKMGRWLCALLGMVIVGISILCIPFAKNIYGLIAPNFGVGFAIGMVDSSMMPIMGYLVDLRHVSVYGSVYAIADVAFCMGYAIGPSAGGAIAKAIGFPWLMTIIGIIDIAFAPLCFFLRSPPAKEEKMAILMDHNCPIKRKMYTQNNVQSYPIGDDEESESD
Format: functional
Give the number; µM is assumed, so skip it.

**Q:** Find the recorded AC50 belonging to O=C(COc1ccc(Cl)cc1)N1CCN(Cc2ccc3c(c2)OCO3)CC1 [FIPEXIDE] and report it.
**A:** 0.15

**Q:** Which AC50 reading was recorded for the compound CN(CCOc1ccc(NS(C)(=O)=O)cc1)CCc1ccc(NS(C)(=O)=O)cc1 [DOFETILIDE] ?
**A:** 1.7

**Q:** Find the recorded AC50 belonging to CCOC(=O)c1ccc(O)cc1 [ETHYLPARABEN] and report it.
**A:** 22

Further cases:
**Q:** # input compound: O=C1c2c(O)c(=O)ccn2N([C@@H]2c3ccccc3SCc3c2ccc(F)c3F)[C@@H]2COCCN12 [BALOXAVIR] ; wanted: its AC50
**A:** 22

**Q:** // query AC50 value for entry CCNC(C)Cc1cccc(C(F)(F)F)c1 (centres undefined) [FENFLURAMINE]
**A:** 3.71

**Q:** For the compound CCOC(=O)N[C@@H]1CC[C@@H]2[C@@H](C1)C[C@H]1C(=O)O[C@H](C)[C@H]1[C@H]2/C=C/c1ccc(-c2cccc(F)c2)cn1 [VORAPAXAR] , what AC50 is on record?
**A:** 1.3

* * *

assay.target: Growth hormone secretagogue receptor type 1 (Homo sapiens); note: assay procedure not described here
Sequence (Q92847 whole entry): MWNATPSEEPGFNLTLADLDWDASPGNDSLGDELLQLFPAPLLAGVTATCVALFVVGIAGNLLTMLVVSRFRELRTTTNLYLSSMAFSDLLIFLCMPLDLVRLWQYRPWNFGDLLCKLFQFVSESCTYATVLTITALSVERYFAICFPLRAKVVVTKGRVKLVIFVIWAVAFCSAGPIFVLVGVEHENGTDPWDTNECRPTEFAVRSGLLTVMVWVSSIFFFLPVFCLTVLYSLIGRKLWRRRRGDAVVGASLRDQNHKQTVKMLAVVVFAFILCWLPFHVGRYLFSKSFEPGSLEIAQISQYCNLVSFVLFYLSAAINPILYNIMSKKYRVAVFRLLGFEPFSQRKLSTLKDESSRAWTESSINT
Listing of entries alongside the reported AC50.

**Q:** What does the record list as AC50 for NC(=O)C[S+]([O-])C(c1ccccc1)c1ccccc1 (centres undefined) ?
**A:** > 30 µM

New cases:
**Q:** What value of measured AC50 is listed for CC(C)(Oc1ccc(C2CC2(Cl)Cl)cc1)C(=O)O (centres undefined) [CIPROFIBRATE] ?
**A:** > 30 µM

**Q:** Looking for the measured AC50 of `C#C[C@]1(O)CC[C@H]2[C@@H]3CCc4cc(O)ccc4[C@H]3CC[C@@]21C` , can you help?
**A:** > 30 µM

**Q:** Quick check: AC50 of `C=C1C[C@@H]2[C@H](CC[C@]3(C)C(=O)CC[C@@H]23)[C@@]2(C)C=CC(=O)C=C12` ?
**A:** > 30 µM

**Q:** Please report the recorded AC50 for `CCCCCOC(=O)Nc1nc(=O)n([C@@H]2O[C@H](C)[C@@H](O)[C@H]2O)cc1F` .
**A:** > 30 µM
